Test system: KM12 colon
Assay: NCI-60 one-dose screen, 48 h
Settings: 10 µM unless noted
The panel holds about 83,000 compounds, 20% with a hit somewhere; the sample as a whole holds those more often. Calls of active or inactive are those of the source. How the source made its calls: active means growth percent below 10; inactive means the rest.
Classes used: t (active), f (inactive)

| compound | assigned.class |
| --- | --- |
| CCOc1ccc(Br)cc1/C=C(\C#N)c1ccc([N+](=O)[O-])cc1 | f |
| COc1nc(OC)nc(-c2cc(-c3cc(OC)c(OC)c(OC)c3)no2)n1 | f |
| Cc1nc2c(nnn2-c2ccccc2)c2nc(-c3ccc(Cl)cc3)oc(=O)c12 | f |
| C=CCN(C)C | f |
| CCOc1ccc(N(C)c2ccc(/C=C/C3=[N+](C)c4ccccc4C3(C)C)cc2)cc1 | t |
| Cc1ccccc1-n1c(C)nc2cc(NC(=O)c3ccc(Cl)cc3)ccc2c1=O | f |
| CCCCCCCCCCCCCCCCC(=O)O.CCCCCCCCCCCCCCCCCC(=O)O.CCCCCCCCCCCCCCCCCC(=O)O.CCCCCCCCCCCCCCCCCC(=O)O.CCCCCCCCCCCCCCCCCC(=O)O.CO[CH-]OC12COC1CC(O)C1(C)C(O)C(OC(C)O)C3=C(C)C(OC(=O)C(O)C([NH-])c4ccccc4)CC(O)(C(OC(=O)c4ccccc4)C21)C3(C)C.[Cu+].[Zn].[Zn].[Zn].[Zn].[Zn] (stereo not given) | f |
| CCCCCCC(C)N(CC(C)(C)O)C(=O)c1ccc([N+](=O)[O-])cc1 (stereo not given) | f |
| Oc1ccccc1\C=N/N=C/C=C/c1ccccc1 | f |
| C[C@@H](c1ccc2c(c1)[nH]c1ccc(Cl)cc12)c1nc2ccccc2[nH]1 | f |
| Cc1cc(CSc2ccc(Cl)cc2)ccc1N | f |
| COC(=O)C(N)CC(C)C (stereo not given) | f |
| C=C(NC(=O)[C@H](C(C)C)N(C)c1cccc2[nH]ccc12)C(=O)OC | f |
| NC(N)=Nc1ccc(/C=C2\C=Cc3ccccc32)cc1 | f |
| COC(=O)c1ccc2[nH]c(O)c(C(=Nc3ccc(N(C)C(=O)CN4CCN(C)CC4)cc3)c3ccc(C)cc3)c2c1 | t |
| CCOC(=O)c1cc(-c2ccc(OC)cc2)[nH]c1NNC(=O)CCOC | f |
| COc1ccc(Cn2cc3c(c2-c2ccccc2)CCc2cnoc2-3)cc1N | t |
| CCCCCCC(=O)C(C)C | f |
| CCCNC(=O)Oc1ccc(/C(=C(/C)Cc2ccc(OC)cc2)c2ccc(OCCN3CCCC3)cc2)cc1 | f |
| Clc1ccc(N/N=C(/c2ccccc2)c2ccccn2)nc1 | f |

* * *

System: OVCAR-5 ovarian
Test: NCI-60 one-dose screen, 48 h
Conditions: 10 µM unless noted
This is part of a sample that, as a whole, favours compounds with a hit. Of some 83,000 tested, about 20% had one in any assay. The source made the active and inactive calls. Rule for the calls: active = growth percent below 10; inactive = the rest.
Classes used: 1 (yes) (active), 0 (no) (inactive)

| compound | assigned.class |
| --- | --- |
| COc1ccc(/C(=C(\c2ccccc2)[N+](=O)[O-])c2ccc(OCCN3CCCC3)cc2)cc1 | 0 (no) |
| COc1cc(N2C(=O)C=CC2=O)ccc1N1C(=O)C=CC1=O | 0 (no) |
| COc1ccc(CN2C(=O)/C(=C\C(=O)c3ccc(OCCN4CCCC4)cc3)c3ccccc32)cc1 | 0 (no) |
| CCCNC(=O)Oc1ccc(/C(=C(/C)Cc2ccc(OC)cc2)c2ccc(OCCN3CCCCC3)cc2)cc1 | 0 (no) |
| Br/C(=N\Nc1nn[nH]n1)c1ccccc1 | 0 (no) |
| CCCCCCCCCCN1CC2CCCCC2C1 (stereo not given) | 0 (no) |
| Cc1ncc(C(=O)Nc2ccc(CN3CCN(C)CC3)c(C(F)(F)F)c2)cc1C#Cc1cnc(NC2CC2)c2ncccc12 | 1 (yes) |
| N#Cc1c(N)nc(Nc2nc3ccccc3[nH]2)nc1-c1ccc(Cl)cc1 | 0 (no) |
| CC(CCN1CCN(CCC(C)CC(C)(C)C)C1CC(C)CC(C)(C)C)CC(C)(C)C (stereo not given) | 0 (no) |
| COc1ccc2sc(-n3nc4nc5n(c(=O)c4c3N)-c3ccccc3Sc3ccccc3-5)nc2c1 | 0 (no) |
| Cc1nnc(-c2cc3c(ccc4ccccc43)oc2=O)c2cn(-c3ccc(Cl)cc3)nc12 | 0 (no) |
| COC(=O)c1ccc2[nH]c(O)c(C(=Nc3ccc(N(C)C(=O)CN4CCN(C)CC4)cc3)c3ccc(C)cc3)c2c1 | 0 (no) |
| Clc1ccc(I)c2ccccc12 | 0 (no) |
| CC/C(=N\Nc1nc2ccccc2n1C)c1ccccn1 | 0 (no) |
| CC(=O)O.[In] | 0 (no) |
| CCN(CC)CCNc1ncnc2c1cnn2-c1ccc(Cl)cc1 | 0 (no) |
| CCOc1ccc2nc3ccc(Cl)cc3nc2c1 | 0 (no) |
| O=C(/C=C\c1ccccc1Cl)c1ccccc1 | 0 (no) |
| CC(=O)Nc1nc(C)c(C(=O)NNC(=O)Nc2ccccc2)s1 | 0 (no) |
| CCCCN(CCCC)c1ccc(C(=O)O)cc1 | 0 (no) |
| O=S(=O)(O)CCI | 0 (no) |
| COc1cc(-c2nc(/C=C3/C(=O)Nc4ccccc43)c3ccccn23)cc(OC)c1OC | 0 (no) |
| CN1CCN(Cc2ccc(NC(=O)c3cncc(C#Cc4c(N)ncc5ccc(F)cc45)c3)cc2C(F)(F)F)CC1 | 1 (yes) |
| N=C(N)c1ccc(-c2ccc(-c3ccc(Cl)cc3)s2)s1 | 1 (yes) |
| O=C(Nc1ccc(-n2cc(-c3ccncc3)c(-c3ccc(Cl)c(O)c3)n2)cc1)c1cc(C(F)(F)F)cc(C(F)(F)F)c1 | 0 (no) |
| O=C1C=C(OCC=C(C(F)(F)F)C(F)(F)F)c2ccccc2C1=O | 0 (no) |
| COc1cc(OC)cc(-c2ccc(-c3ccc(C(=N)N)cc3)s2)c1 | 1 (yes) |
| O=Nc1c(-c2c(O)[nH]c3cc(Br)ccc23)[nH]c2ccccc12 | 1 (yes) |
| CCC(C)(CC)c1ccc(O)c(C)c1 | 0 (no) |
| c1ccc(-c2cn3ccnc3c(-c3ccc4ncn(C5CCCCC5)c4c3)n2)cc1 | 0 (no) |

* * *

Below, each of the compounds is paired with its reported growth value.
Test system: SK-MEL-28 melanoma
Test: NCI-60 one-dose screen, 48 h (100 = growth as untreated, 0 = no growth, -100 = all killed)
Details: 10 µM unless noted
This is part of a sample that, as a whole, favours compounds with a hit. Of some 83,000 tested, about 20% had one in any assay.

| compound | growth, % |
| --- | --- |
| COc1cc(NC(=O)CSc2nc3ccc(Cl)cc3c(=O)n2-c2ccc(F)cc2)cc(OC)c1OC | 95.4 |
| CCCCCCCCCCN1CC2CCCCC2C1 (configuration not stated) | 90.6 |
| COc1cc(N)c2nccc(C)c2c1OC | 115 |
| Cc1nc2c(nnn2-c2ccccc2)c2nc(-c3ccccc3)oc(=O)c12 | 104 |
| Cc1ccc2c(O)c(O)cc(NC(C)CCCN)c2n1 (configuration not stated) | 131 |
| Cc1nn(-c2ccccc2)c(N)c1N=C1NC(=O)/C(=C/c2ccc(Cl)cc2)S1 | 92.3 |
| CC(=O)c1ccc2c(c1)c1ccccc1n2C | 107 |

* * *

Below, each of the molecules is paired with its reported growth value.
System: SNB-75 CNS
Test: NCI-60 one-dose screen, 48 h (100 = growth as untreated, 0 = no growth, -100 = all killed)
Details: 10 µM unless noted
The panel holds about 83,000 compounds, 20% with a hit somewhere; the sample as a whole holds those more often. The source made the active and inactive calls. How the source made its calls: active means growth percent below 10; inactive means the rest.
outcome.measure: growth

| molecule | subject.of.test | recorded.result |
| --- | --- | --- |
| Cc1ccc(S(=O)(=O)NC(CCC(=O)Nc2ccccc2)C(=O)Nc2ccccc2)cc1 (stereo unspecified) | SNB-75 CNS | -24.9% (active) |
| CC([C@H]1CCC2C3CCC4C[C@@H](N)CC[C@]4(C)C3CC[C@@]21C)N(C)C (stereo partly specified) | SNB-75 CNS | 55.8% (inactive) |
| COC(=O)[C@@H]1[C@H](O)[C@H](C)[C@H](O)[C@H](C)/C=C\C=C(C)C(=O)Nc2c(C)c(OC(C)=O)c3c(c2O)C(=O)C(C)=C2OCOC(=C23)C(C)=C[C@@](C)(O)[C@H](O)[C@@H](C)[C@H]1OC(C)=O | SNB-75 CNS | 86.6% (inactive) |
| c1cc(C2CCCCC2)ccc1OCCCCCCN1CCNCC1 | SNB-75 CNS | 31.2% (inactive) |
| CCOC(=O)NC1=NCC(C)(C)S1 | SNB-75 CNS | 91.2% (inactive) |
| COc1cc(-c2nn(-c3ccc(NC(=O)Nc4ccc(Cl)c(Cl)c4)cc3)cc2-c2ccncc2)ccc1Cl | SNB-75 CNS | 25% (inactive) |
| CCCCN(CCC)CCCCCCCCCCN1CCCc2ccccc21 | SNB-75 CNS | 89% (inactive) |
| O=C1c2ccccc2CCc2ccccc21 | SNB-75 CNS | 91.8% (inactive) |
| CCN(CC)CCOC(=O)c1cccnc1 | SNB-75 CNS | 79.6% (inactive) |
| COc1cccc(Cn2cc3c(c2)-c2oncc2CC3)c1 | SNB-75 CNS | 25.2% (inactive) |
| CCn1cnc(C[C@H](NC(=O)[C@@H](NC(=O)Nc2cc(C(F)(F)F)cc(C(F)(F)F)c2)C(C)(C)C)C(=O)OC)c1 | SNB-75 CNS | -98.8% [100 µM] (active) |
| COc1ccc(/C=C/C(=O)/C=C/c2cc3ccccc3[nH]c2=O)cc1 | SNB-75 CNS | 61.6% (inactive) |
| CCOc1ccccc1/C=N\N=C(N/N=C/c1ccccc1OCC)N/N=C/c1ccccc1OCC | SNB-75 CNS | 22.3% (inactive) |
| COC(=O)c1ccc2[nH]c(O)c(C(=Nc3ccc(N(C)C(=O)CN4CCN(C)CC4)cc3)c3cccc(OC)c3)c2c1 | SNB-75 CNS | -2.49% (active) |
| CC1(c2ccc(Br)cc2)NC(=O)NC1=O (stereo unspecified) | SNB-75 CNS | 99.3% (inactive) |
| Cc1sc(NC(=O)c2ccc(C(C)(C)C)cc2)c(C(=O)O)c1C | SNB-75 CNS | 85.5% (inactive) |
| CCCCCCCCCCCCc1ccc([N+](CC)(CC)CC)cc1 | SNB-75 CNS | 33.5% (inactive) |
| N#Cc1c2ncccc2c2nnc3cc(Cl)c(Cl)cc3n12 | SNB-75 CNS | 67.1% (inactive) |
| COc1cc(N)c2nccc(C)c2c1OC | SNB-75 CNS | 103% (inactive) |
| CC[C@H](Nc1ncnc2nc[nH]c12)c1nc2cccc(NCc3ccc(C(=O)NO)o3)c2c(=O)n1-c1ccccc1 | SNB-75 CNS | 71.6% (inactive) |
| CCOC(=O)/C(C#N)=C(/CC)OCC | SNB-75 CNS | 90.8% (inactive) |
| CCCCCN1CCN(C(CC(=O)c2ccccc2)C(=O)c2ccccc2)CC1 (stereo unspecified) | SNB-75 CNS | 100% (inactive) |
| CCOC(=O)c1c(C)oc2ncnc(Nc3ccc(C(=O)NCCc4ccccc4)cc3)c12 | SNB-75 CNS | 7.02% (active) |
| Cc1ccc(C(=O)Nc2ccc(CN3CCN(C)CC3)c(C(F)(F)F)c2)cc1C#Cc1cnc(N)c2ccc(C#N)cc12 | SNB-75 CNS | 51.5% (inactive) |
| Cc1ccc(S(=O)(=O)N/N=C2\CC3CCC2C3)cc1 (stereo unspecified) | SNB-75 CNS | 85.7% (inactive) |
| Cc1c(C(N)=O)sc2c1c(=O)n(Cc1ccccc1)c1nnc(S(C)(=O)=O)n21 | SNB-75 CNS | 94.4% (inactive) |

Source: PubChem BioAssay (NCI)
